# experimentDescription: Lipophilicity, log D of the compound at pH 7.4
# Format: physicochemical
# testContext: buffer
measuredProperty: logD
Respond with the number and no other words.

Answered cases to consult:
In [3]: df
Out[3]:
                                 chemsmiles  recordednumber
0            O=c1[nH]c2ccccc2c2c1sc1ccccc12            3.75
1                        O=c1[nH]ccc2ccsc12            1.24
2  CC(C)(C)c1ccc(-c2nc3c(sc4ccccc43)c(=O)[nH]2)cc1            5.16
3         O=c1[nH]c2cc(O)ccc2c2c1sc1ccccc12            3.43

Next item in the queue.
Query: For O=c1[nH]c(-c2ccccc2)nc2c1sc1ccccc12 , what is its reported logD?
Response: 3.62

---

# targetUnderTest: Poly [ADP-ribose] polymerase tankyrase-2 (Homo sapiens)
# Sequence (Q9H2K2 whole entry): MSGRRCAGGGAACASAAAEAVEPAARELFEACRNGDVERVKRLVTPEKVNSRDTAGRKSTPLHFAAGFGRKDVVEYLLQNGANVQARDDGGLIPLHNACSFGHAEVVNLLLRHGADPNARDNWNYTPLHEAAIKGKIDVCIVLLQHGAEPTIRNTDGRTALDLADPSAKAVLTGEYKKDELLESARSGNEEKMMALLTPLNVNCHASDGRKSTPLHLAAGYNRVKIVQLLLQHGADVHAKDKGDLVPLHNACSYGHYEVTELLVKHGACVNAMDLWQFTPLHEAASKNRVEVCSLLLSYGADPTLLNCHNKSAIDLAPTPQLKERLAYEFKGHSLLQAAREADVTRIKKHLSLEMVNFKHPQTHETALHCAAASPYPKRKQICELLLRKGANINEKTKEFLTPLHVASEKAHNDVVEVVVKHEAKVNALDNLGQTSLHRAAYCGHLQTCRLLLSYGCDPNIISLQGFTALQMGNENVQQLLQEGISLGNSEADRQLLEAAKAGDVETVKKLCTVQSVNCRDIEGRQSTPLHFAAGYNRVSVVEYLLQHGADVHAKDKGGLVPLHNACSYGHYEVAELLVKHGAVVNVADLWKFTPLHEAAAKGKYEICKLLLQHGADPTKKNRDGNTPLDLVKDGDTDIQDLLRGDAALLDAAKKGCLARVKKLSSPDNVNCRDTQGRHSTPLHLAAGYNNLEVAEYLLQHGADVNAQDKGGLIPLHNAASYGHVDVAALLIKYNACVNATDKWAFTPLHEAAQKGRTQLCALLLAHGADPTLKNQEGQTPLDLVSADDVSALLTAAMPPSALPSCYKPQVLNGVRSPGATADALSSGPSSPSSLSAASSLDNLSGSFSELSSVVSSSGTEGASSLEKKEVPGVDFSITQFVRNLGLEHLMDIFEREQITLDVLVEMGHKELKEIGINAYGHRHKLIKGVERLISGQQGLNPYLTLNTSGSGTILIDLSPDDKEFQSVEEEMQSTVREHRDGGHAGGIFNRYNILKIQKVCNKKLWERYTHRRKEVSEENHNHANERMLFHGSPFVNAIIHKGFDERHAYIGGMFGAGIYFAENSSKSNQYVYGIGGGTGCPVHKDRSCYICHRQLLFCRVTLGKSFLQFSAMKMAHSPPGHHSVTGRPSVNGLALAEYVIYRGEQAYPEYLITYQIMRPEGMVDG
# experimentDescription: Inhibition of GST-tagged human recombinant TNKS2 incubated for 1 hr using NAD+, biotinylated NAD+ and activated DNA by luminescence based assay
measuredProperty: pIC50
Answer as the number alone; pIC50 is minus log10 of concentration in mol/L.

Query: Query (compound): CC(C)(C)c1ccc(-c2nc3c(sc4ccccc43)c(=O)[nH]2)cc1 ; field requested: pIC50
Response: 7.54

---

# targetUnderTest: Poly [ADP-ribose] polymerase 2 (Homo sapiens) (UniProt Q9UGN5)
# Sequence (Q9UGN5 whole entry): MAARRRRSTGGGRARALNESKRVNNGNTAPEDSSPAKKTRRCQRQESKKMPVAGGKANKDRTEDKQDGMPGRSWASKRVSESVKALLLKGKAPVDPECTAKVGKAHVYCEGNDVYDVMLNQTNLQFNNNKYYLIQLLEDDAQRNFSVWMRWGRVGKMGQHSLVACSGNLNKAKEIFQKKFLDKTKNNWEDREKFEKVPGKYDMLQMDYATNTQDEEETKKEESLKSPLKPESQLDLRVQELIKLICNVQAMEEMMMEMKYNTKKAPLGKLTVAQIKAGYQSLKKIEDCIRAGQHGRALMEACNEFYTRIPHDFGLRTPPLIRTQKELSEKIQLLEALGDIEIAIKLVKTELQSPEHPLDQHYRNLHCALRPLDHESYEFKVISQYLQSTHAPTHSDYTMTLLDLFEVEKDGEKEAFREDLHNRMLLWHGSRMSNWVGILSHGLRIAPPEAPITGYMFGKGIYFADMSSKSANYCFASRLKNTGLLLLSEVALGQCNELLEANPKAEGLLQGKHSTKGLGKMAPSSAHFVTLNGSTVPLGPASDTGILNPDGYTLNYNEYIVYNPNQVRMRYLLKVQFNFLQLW
# experimentDescription: Inhibition of human recombinant PARP2 incubated for 1 hr using histone substrate at 1 uM by luminescence based assay
measuredProperty: inhibition (%)
Numbers only; they are read as %.

>>> df
                                 chemsmiles  recordednumber
0                        O=c1[nH]ccc2ccsc12              24
1            O=c1[nH]c2ccccc2c2c1sc1ccccc12              14
2        O=c1[nH]c(C2CCCCC2)nc2c1sc1ccccc12              14
3          COc1ccc2c(c1)nc(O)c1sc3ccccc3c12              27
4         O=c1[nH]c2ccccc2c2c1sc1ccc(O)cc12              93
5                Oc1cc(-c2ccccc2)c2ccccc2n1               3
6  COc1ccc2c(c1)[nH]c(=O)c1sc3ccc(OC)cc3c12              12
7        O=c1[nH]c(-c2cccs2)nc2c1sc1ccccc12               9

Now consider a different molecule.
Query: Recorded inhibition for O=c1[nH]c2cc(O)ccc2c2c1sc1ccccc12 , please?
Response: 64

---

Reported inhibition values are given for each entry in this list.
# targetUnderTest: UniProt Q9UGN5
# experimentDescription: Inhibition of human recombinant PARP2 incubated for 1 hr using histone substrate at 1 uM by luminescence based assay
Units required after the number.

Below, 3 compounds whose answers are already recorded.
>>> print(df.to_string())
                                 chemsmiles  measuredproperty  result
0       O=c1[nH]c(-c2ccccc2)nc2c1sc1ccccc12        inhibition      0%
1  Cc1ccc(-c2nc3c(sc4ccccc43)c(=O)[nH]2)cc1        inhibition      4%
2             O=c1[nH]c(-c2ccccc2)cc2ccsc12        inhibition     26%

Now let's try a different one.
Query: Given the compound CC(C)(C)c1ccc(-c2nc3c(sc4ccccc43)c(=O)[nH]2)cc1 , what is its reported inhibition?
Response: 4%
